We begin with a simple list: items and their reported IC50.
- Assayed System: Msm. GyrB (Mycolicibacterium smegmatis)
Record the value in nM, omitting the unit from your answer.

(Q) Quick check: IC50 of C=CCNC(=O)Nc1nc2cc(-c3cncnc3)c(OCC(C)C)nc2s1 [Example 33] ?
(A) 18.4

(Q) What would you report for C=CCNC(=O)Nc1nc2cc(-c3cncc(C(=O)NCCCN4CCCC4=O)c3)cnc2s1 [Example 19] ?
(A) 297

(Q) Entry to check: CCNC(=O)Nc1nc2cc(-c3ccc(F)nc3)c(OCCOC)nc2s1 [Example 48]
(A) 4.51

* * *

- Assayed System: Msm. GyrB (Mycolicibacterium smegmatis, UniProt A0QNE0)
- Sequence (A0QNE0 whole entry): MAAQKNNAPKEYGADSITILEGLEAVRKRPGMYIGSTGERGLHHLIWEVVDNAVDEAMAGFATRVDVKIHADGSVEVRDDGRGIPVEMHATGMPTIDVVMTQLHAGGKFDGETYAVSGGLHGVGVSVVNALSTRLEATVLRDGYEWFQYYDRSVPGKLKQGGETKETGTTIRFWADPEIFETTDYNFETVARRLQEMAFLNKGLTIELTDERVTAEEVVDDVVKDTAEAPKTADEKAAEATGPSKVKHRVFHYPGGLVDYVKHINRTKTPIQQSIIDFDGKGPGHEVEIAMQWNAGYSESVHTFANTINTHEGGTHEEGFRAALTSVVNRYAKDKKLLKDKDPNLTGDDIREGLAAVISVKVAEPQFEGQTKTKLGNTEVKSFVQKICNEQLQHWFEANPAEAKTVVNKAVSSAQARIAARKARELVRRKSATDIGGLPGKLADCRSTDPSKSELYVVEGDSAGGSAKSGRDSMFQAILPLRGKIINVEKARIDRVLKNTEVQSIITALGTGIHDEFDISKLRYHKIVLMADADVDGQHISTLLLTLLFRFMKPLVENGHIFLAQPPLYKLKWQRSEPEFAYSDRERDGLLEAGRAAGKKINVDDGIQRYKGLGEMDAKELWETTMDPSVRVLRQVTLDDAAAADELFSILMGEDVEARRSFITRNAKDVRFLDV
Quantity Name: IC50 (nM)
Give the number; nM is assumed, so skip it.

Recorded results for 8 compounds are shown here.
# Compound, Display Unit, Obs Value
measured = [
    ("CCNC(=O)Nc1nc2cc(-c3cncc(C(=O)OCC)c3)c(OCC3CCOC3)nc2s1 (stereo not shown)", "nM", 62.2),
    ("C=CCNC(=O)Nc1nc2cc(-c3cncnc3)c(OCCOC)nc2s1", "nM", 60.3),
    ("C=CCNC(=O)Nc1nc2cc(-c3cncc(C(=O)NCC(C)C)c3)cnc2s1", "nM", 394),
    ("CCNC(=O)Nc1nc2cc(-c3cccnc3OC)c(OCC3CCOCC3)nc2s1", "nM", 4.74),
    ("CCNC(=O)Nc1nc2cc(-c3cnc(OC)nc3)cnc2o1", "nM", 10900),
    ("CCNC(=O)Nc1nc2cc(-c3cnc(C(F)(F)F)nc3)c(OCC3CCOC3)nc2s1 (stereo not shown)", "nM", 2.9),
    ("CCNC(=O)Nc1nc2cc(-c3cnc(OC)nc3)cnc2s1", "nM", 140),
    ("CCNC(=O)Nc1nc2cc(-c3cncc(C(=O)O)c3)cnc2s1", "nM", 159),
]

(Q) What measured IC50 is associated with "C=CCNC(=O)Nc1nc2cc(-c3cncnc3)c(C)nc2s1" on Msm. GyrB (Mycolicibacterium smegmatis, UniProt A0QNE0)?
(A) 151

(Q) Would you kindly repeat that for "C=CCNC(=O)Nc1nc2cc(-c3cncc(C(=O)OCC)c3)c(C)nc2s1" ?
(A) 151

(Q) Then CCNC(=O)Nc1nc2cc(-c3cccc(/C=C/C(=O)O)c3)c(OCC3CCOC3)nc2s1 (stereo not shown) ?
(A) 35.2

(Q) Then this compound: "CCNC(=O)Nc1nc2cc(-c3c(C)noc3C)c(OCC3CCOCC3)nc2s1"
(A) 727

(Q) And the next one, "CCNC(=O)Nc1nc2cc(-c3cncnc3)c(OC(C)C)nc2s1" ?
(A) 5.2

(Q) One more compound: "C=CCNC(=O)Nc1nc2cc(-c3cnccn3)cnc2s1"
(A) 836

(Q) Item: "C=CCNC(=O)Nc1nc2cc(-c3cnc(OC)nc3)c(C)nc2o1"
(A) 1610

(Q) Item: "CCNC(=O)Nc1nc2cc(-c3cncnc3)c(N[C@@H](C)C(=O)NC)nc2s1"
(A) 15.9

* * *

// reported pIC50 per item
- Assayed System: UniProtKB A0QNE0
When answering, recall that pIC50 equals minus log10 of the concentration in mol/L, and write that number alone.

// below: answered compounds
# Compound, pIC50
measured = [
    ("C=CCNC(=O)Nc1nc2cc(Br)c(C)nc2s1", 5.66),
    ("C=CCNC(=O)Nc1nc2cc(-c3cnc(OC)nc3)c(C)nc2s1", 6.62),
    ("C=CCNC(=O)Nc1nc2cc(Br)cnc2o1", 4.61),
]

(Q) Would you kindly share the measured pIC50 for "C=CCNC(=O)Nc1nc2cc(-c3cccnc3)cnc2o1" ?
(A) 5.70

(Q) Now consider "C=CCOCCOc1nc2sc(NC(=O)NCC)nc2cc1-c1cncnc1" .
(A) 7.77

(Q) Another compound to look at: "C=CCNC(=O)Nc1nc2cc(-c3cncc(C(=O)NCC4CCOCC4)c3)cnc2s1"
(A) 6.63

(Q) And then CCNC(=O)Nc1nc2cc(-c3ccc(F)nc3)c(OC3C=CCCC3)nc2s1 (stereo not drawn) , what is it?
(A) 7.54
